Reported GI50 values are given for each entry in this list.
- Test system: OVCAR-5
- measurement.description: NCI tumour cell line growth inhibition, 48 h
Active and inactive are the calls of the source. Cut-off read from the data, not from the text of the source: active = GI50 up to about 1.1 µM and inactive = higher.

The examples below pair each entry with its known result.
**Q:** Please report the recorded GI50 for "CCCS(=O)(=O)Nc1ccc(Nc2c3ccccc3nc3ccccc23)c(OC)c1" .
**A:** 8.63 µM (inactive)

**Q:** Please report the recorded GI50 for "O=c1oc2c(Cl)cc(Cl)cc2cc1-c1cn2c(n1)sc1ccccc12" .
**A:** > 100 µM (inactive)

Next:
**Q:** Please report the recorded GI50 for "N#Cc1c(-c2ccc([N+](=O)[O-])cc2)c(C#N)c(=O)n(NS(=O)(=O)c2ccccc2)c1S" .
**A:** 61 µM (inactive)

**Q:** Please report the recorded GI50 for CCOC(=O)C(NC(=O)c1ccccc1)(Nc1ccc(S(=O)(=O)Nc2ccc(OC)nn2)cc1)C(F)(F)F (stereo not given) .
**A:** > 100 µM (inactive)

**Q:** Please report the recorded GI50 for CCOP(=O)(CCC(O)CNc1nc(N)nc(Cl)c1/N=N/c1ccc(Cl)cc1)OCC (stereo not given) .
**A:** 17.6 µM (inactive)

Hello, the source for this data is ChEMBL document CHEMBL1201862, in case you need it.
